Cited source for all entries: patent US20260284010A1

- Method notes: Solubilization test of compound 1 with surfactants in FaSSIF
- Type: physicochemical
- Run parameters: FaSSIF (pH 6.5) with 5 mg SLS, 50 mg API in 5 mL, 37° C., 0.5 h; read-out: Concentration of API in vehicle
Observed property: solubility at 0.5 h (µg/mL)
One number for each entry, in µg/mL.

Q. Give the reported solubility at 0.5 h for this molecule. NS(=O)(=O)c1cc(NC(=O)Cc2ccccc2Cl)cc2nn(C(F)F)cc12
A. 614

---

- Method notes: Solubilization test of compound 1 with surfactants in FaSSIF
- Assay type: physicochemical
- Run parameters: FaSSIF (pH 6.5) with 5 mg Cremophor EL, 50 mg API in 5 mL, 37° C., 4 h; read-out: Concentration of API in vehicle
Observed property: solubility at 4 h (µg/mL)
Numbers only, in µg/mL.

Q. For the compound NS(=O)(=O)c1cc(NC(=O)Cc2ccccc2Cl)cc2nn(C(F)F)cc12 , give its measured solubility at 4 h value.
A. 1510

---

- Method notes: Solubilization test of compound 1 with surfactants in FaSSIF
- Assay type: physicochemical
- Run parameters: FaSSIF (pH 6.5), no surfactant, 50 mg API in 5 mL, 37° C., 0.5 h; read-out: Concentration of API in vehicle
Observed property: solubility at 0.5 h (µg/mL)
Answers are plain numbers, in µg/mL.

Q. Recall and state the measured solubility at 0.5 h for NS(=O)(=O)c1cc(NC(=O)Cc2ccccc2Cl)cc2nn(C(F)F)cc12 .
A. 33.9

---

- Method notes: Solubilization test of compound 1 with surfactants in FaSSIF
- Assay type: physicochemical
- Run parameters: fassif with poloxamer 188; FaSSIF (pH 6.5) with 5 mg Poloxamer 188, 50 mg API in 5 mL, 37° C., 2 h; read-out: Concentration of API in vehicle
Observed property: solubility at 2 h (µg/mL)
Numbers only, in µg/mL.

Q. Name the recorded solubility at 2 h of the molecule listed here: NS(=O)(=O)c1cc(NC(=O)Cc2ccccc2Cl)cc2nn(C(F)F)cc12 [compound 1]
A. 104

---

- Method notes: Solubilization test of compound 1 with surfactants in FaSSIF
- Format: physicochemical
- Run parameters: fassif with tween 80; FaSSIF (pH 6.5) with 5 mg Tween 80, 50 mg API in 5 mL, 37° C., 4 h; read-out: Concentration of API in vehicle
- Protocol: 50 mg of compound 1 was weighed into 5 mL of FaSSIF medium containing 5 mg of different surfactants (target concentration of API (compound 1):10 mg/mL). The mixture was shaken at 500 rpm and 37° C. 0.5 mL each of the suspension samples was taken at 0.5 hours, 1 hour, 2 hours, and 4 hours, respectively, centrifuged at 14,000 rpm for 5 minutes, and the supernatant was diluted and analyzed by HPLC.
Observed property: solubility at 4 h (µg/mL)
One number for each entry, in µg/mL.

Q. Provide one value: measured solubility at 4 h of NS(=O)(=O)c1cc(NC(=O)Cc2ccccc2Cl)cc2nn(C(F)F)cc12
A. 887

---

- Method notes: Solubilization test of compound 1 with surfactants in FaSSIF
- Assay type: physicochemical
- Run parameters: FaSSIF (pH 6.5) with 5 mg Solutol HS15, 50 mg API in 5 mL, 37° C., 2 h; read-out: Concentration of API in vehicle
Observed property: solubility at 2 h

Q. In one line, give reported solubility at 2 h of the entry NS(=O)(=O)c1cc(NC(=O)Cc2ccccc2Cl)cc2nn(C(F)F)cc12 .
A. 1480 µg/mL
